Biological target: UniProt P11229
Sequence (P11229 whole entry): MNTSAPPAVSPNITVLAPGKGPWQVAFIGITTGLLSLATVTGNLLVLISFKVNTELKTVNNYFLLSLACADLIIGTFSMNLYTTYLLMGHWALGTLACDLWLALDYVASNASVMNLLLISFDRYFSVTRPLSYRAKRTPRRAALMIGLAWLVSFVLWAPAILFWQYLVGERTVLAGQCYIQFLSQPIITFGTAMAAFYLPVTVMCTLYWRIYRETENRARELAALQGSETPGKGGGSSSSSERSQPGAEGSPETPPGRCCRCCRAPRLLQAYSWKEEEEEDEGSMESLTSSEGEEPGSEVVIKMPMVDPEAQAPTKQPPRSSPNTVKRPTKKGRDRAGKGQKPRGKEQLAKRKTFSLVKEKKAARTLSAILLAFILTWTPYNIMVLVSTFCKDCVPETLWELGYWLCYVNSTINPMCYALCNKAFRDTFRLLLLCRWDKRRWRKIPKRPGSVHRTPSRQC
Assay: Agonist activity at muscarinic M1 receptor relative to carbachol
Format: functional
measured metric: Activity (%)
Write the answer as a number in %, unit excluded.

# return recorded Activity for entry O=C(Nc1cccc(SC(F)(F)F)c1)N1CCC(N2CCC(n3c(=O)[nH]c4ccccc43)CC2)CC1
85

# return recorded Activity for entry O=c1[nH]c2cc(Br)ccc2n1C1CCN(C2CCN(S(=O)(=O)c3ccccc3)CC2)CC1
81

# return recorded Activity for entry O=c1[nH]c2ccc(F)cc2n1C1CCN(C2CCN(S(=O)(=O)c3ccccc3)CC2)CC1
76

# return recorded Activity for entry O=c1[nH]c2c(F)cccc2n1C1CCN(C2CCN(S(=O)(=O)c3ccccc3)CC2)CC1
49

# return recorded Activity for entry O=C(c1ccccc1C(F)(F)F)N1CCC(N2CCC(n3c(=O)[nH]c4ccccc43)CC2)CC1
32

# return recorded Activity for entry O=C(Nc1cccc(SC(F)(F)F)c1)N1CCC(N2CCC(n3c(=O)[nH]c4cc(Cl)ccc43)CC2)CC1
90

# return recorded Activity for entry O=C(c1cccc(Cl)c1)N1CCC(N2CCC(n3c(=O)[nH]c4ccccc43)CC2)CC1
21

# return recorded Activity for entry Cc1cccc(C(=O)N2CCC(N3CCC(n4c(=O)[nH]c5cc(Cl)ccc54)CC3)CC2)c1
50

# return recorded Activity for entry O=C(c1ccccc1C(F)(F)F)N1CCC(N2CCC(n3c(=O)[nH]c4cc(Cl)ccc43)CC2)CC1
24
